Provide the recorded glycan array binding signal (z-score) for the entries that follow.
- testTarget: GalNAc(b1-3)Gal(a1-6)Gal(b1-4)Glc
- testDetails: glycan array binding signal (z-score within array); higher = stronger binding
- assayContext: glycan notation: IUPAC condensed, linker removed
The sample as a whole holds a higher share of the strongest signals than the screen did.
Answers are plain numbers.

Si Bti9 1b-V5-his (Solanum lycopersicum) (protein) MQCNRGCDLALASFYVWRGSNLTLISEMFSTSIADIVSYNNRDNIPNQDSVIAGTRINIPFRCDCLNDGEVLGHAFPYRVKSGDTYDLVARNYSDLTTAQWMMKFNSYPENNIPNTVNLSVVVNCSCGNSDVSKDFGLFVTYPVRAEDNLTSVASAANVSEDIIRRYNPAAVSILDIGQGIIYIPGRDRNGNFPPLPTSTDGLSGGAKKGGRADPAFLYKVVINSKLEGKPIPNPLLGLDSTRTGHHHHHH : -0.348
GSL-I (Griffonia simplicifolia) (protein) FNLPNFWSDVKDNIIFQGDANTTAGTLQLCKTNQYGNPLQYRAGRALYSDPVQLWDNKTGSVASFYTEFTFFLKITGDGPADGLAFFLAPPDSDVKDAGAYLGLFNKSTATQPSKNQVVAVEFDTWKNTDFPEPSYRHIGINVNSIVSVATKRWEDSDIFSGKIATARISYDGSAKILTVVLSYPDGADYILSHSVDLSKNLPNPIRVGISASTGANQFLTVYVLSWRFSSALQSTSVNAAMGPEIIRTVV : -0.191

Now, please, on to the next binder.
Lookup: Entry WGA (Triticum vulgare) (protein) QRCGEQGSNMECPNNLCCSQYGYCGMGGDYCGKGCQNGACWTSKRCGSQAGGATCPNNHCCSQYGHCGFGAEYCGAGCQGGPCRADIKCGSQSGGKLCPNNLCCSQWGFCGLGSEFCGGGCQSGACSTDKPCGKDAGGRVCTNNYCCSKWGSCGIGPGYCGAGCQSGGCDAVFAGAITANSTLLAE needs its glycan array binding signal (z-score) filled in; supply it.
Found: -0.316

Cited source for all entries: the supplement of paper PMC8728848
